procedure_text: Solubility of sirolimus in aqueous media, solvents and benzyl benzoate/ethanol mixtures
Assay type: physicochemical
conditions: organic solvent or mixture; Benzyl benzoate (BB); ambient temperature; read-out: Solubility
endpoint_label: solubility (mg/mL)
Numbers only here, please. The scale is mg/mL.

Summary for this compound, CO[C@H]1C[C@@H]2CC[C@@H](C)[C@@](O)(O2)C(=O)C(=O)N2CCCC[C@H]2C(=O)O[C@H]([C@H](C)C[C@@H]2CC[C@@H](O)[C@H](OC)C2)CC(=O)[C@H](C)/C=C(\C)[C@@H](O)[C@@H](OC)C(=O)[C@H](C)C[C@H](C)/C=C/C=C/C=C/1C [Sirolimus, sirolimus] : solubility is 37
